Test system: super sensitive Gram-negative Escherichia coli (E. coli) BAS849
Experiment: Antibacterial activity, microbroth dilution MIC, E. coli BAS849
Assay type: cell-based
Settings: Escherichia coli; E. coli BAS849, microbroth dilution; read-out: MIC, BAS849
Where a name gives a salt, the structure may show the parent alone.
Listed here: items and their measured MIC.

# compound, measurementTarget, MIC
rows = [
    ("CCc1c(-c2ccc(N3C[C@H]4CCC[C@H](NC)[C@H]4C3)cc2)[nH]c(=O)c(C(=O)O)c1O.Cl [Cpd 268]", "super sensitive Gram-negative Escherichia coli (E. coli) BAS849", "1 to 3.5 mg/L"),
    ("CCc1c(-c2ccc(N3CCCC3=O)cc2)[nH]c(=O)c(C(=O)O)c1O [Cpd 115]", "super sensitive Gram-negative Escherichia coli (E. coli) BAS849", "< 1 mg/L"),
    ("CCc1c(-c2ccc(N3C[C@@H]4[C@@H](N)[C@@H]4C3)cc2)[nH]c(=O)c(C(=O)O)c1O [Cpd 269, hydrochloride]", "super sensitive Gram-negative Escherichia coli (E. coli) BAS849", "< 1 mg/L"),
    ("CCc1cc(C(=O)O)c(=O)[nH]c1-c1ccc(OC)cc1N1CCCC1 [Cpd 35]", "super sensitive Gram-negative Escherichia coli (E. coli) BAS849", "12.5 to 150 mg/L"),
]
